Recorded values, source patent US10703748B2.

biological target: GSK3β kinase (Homo sapiens, UniProt P49841); assay: GSK3β kinase activity (Ser/Thr 09 peptide Z-lyte FRET assay); format: biochemical; conditions: recombinant kinase, 46 μM ATP, one hour at room temperature; read-out: EC50
Sequence (P49841 whole entry): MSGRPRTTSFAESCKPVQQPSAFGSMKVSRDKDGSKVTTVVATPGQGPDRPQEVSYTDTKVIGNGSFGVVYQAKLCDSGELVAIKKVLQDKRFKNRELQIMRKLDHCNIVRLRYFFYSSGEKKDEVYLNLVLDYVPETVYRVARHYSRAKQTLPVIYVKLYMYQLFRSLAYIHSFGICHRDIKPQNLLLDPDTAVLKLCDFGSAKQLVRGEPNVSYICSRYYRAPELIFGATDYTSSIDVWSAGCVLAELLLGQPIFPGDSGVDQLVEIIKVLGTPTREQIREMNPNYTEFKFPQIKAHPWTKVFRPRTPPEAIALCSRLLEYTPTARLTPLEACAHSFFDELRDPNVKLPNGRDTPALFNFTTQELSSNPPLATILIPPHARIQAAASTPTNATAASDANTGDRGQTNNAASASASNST
What log10 of EC50 was measured for each of the following?
A difference of one corresponds to tenfold EC50; all values are log10 with EC50 in nM.

## Task Quick one: give measured log10 of EC50 for CN1CCCN(c2cc(C(=O)Nc3cc4nc(-c5cn(C)nn5)ccc4cn3)ccn2)CC1 [Compound 379]
## Result 2.56

## Task Quick one: give measured log10 of EC50 for O=C(Nc1ncc2ccc(-c3cncc(NCC4(F)CNC4)n3)cc2n1)C1CC1 [Compound 1777]
## Result 1.99

## Task Quick one: give measured log10 of EC50 for Cn1cncc1-c1cc2cc(NC(=O)c3cccc(CN4CCCC4)c3)ncc2cn1 [Compound 4077]
## Result 3.36

## Task Quick one: give measured log10 of EC50 for CN1CC=C(c2cc(C(=O)Nc3ncc4ccc(-c5cncc(NC(C)(C)C)n5)cc4n3)ccn2)CC1 [Compound 1773]
## Result 3.00

## Task Quick one: give measured log10 of EC50 for Cn1cc(-c2cnc3cnc(NC(=O)C4CC4)cc3c2)cn1 [Compound 2722]
## Result 2.51

## Task Quick one: give measured log10 of EC50 for Cc1nnc(-c2ccc3cnc(NC(=O)C4CCN(C(=O)c5ccccc5)CC4)nc3c2)s1 [Compound 1625]
## Result 0.90

## Task Quick one: give measured log10 of EC50 for Cn1cc(-c2ccc3cnc(NC(=O)C(C)(C)F)nc3c2)nn1 [Compound 1239]
## Result 2.05
